measured_target: UniProt:Q12809
Sequence (Q12809 whole entry): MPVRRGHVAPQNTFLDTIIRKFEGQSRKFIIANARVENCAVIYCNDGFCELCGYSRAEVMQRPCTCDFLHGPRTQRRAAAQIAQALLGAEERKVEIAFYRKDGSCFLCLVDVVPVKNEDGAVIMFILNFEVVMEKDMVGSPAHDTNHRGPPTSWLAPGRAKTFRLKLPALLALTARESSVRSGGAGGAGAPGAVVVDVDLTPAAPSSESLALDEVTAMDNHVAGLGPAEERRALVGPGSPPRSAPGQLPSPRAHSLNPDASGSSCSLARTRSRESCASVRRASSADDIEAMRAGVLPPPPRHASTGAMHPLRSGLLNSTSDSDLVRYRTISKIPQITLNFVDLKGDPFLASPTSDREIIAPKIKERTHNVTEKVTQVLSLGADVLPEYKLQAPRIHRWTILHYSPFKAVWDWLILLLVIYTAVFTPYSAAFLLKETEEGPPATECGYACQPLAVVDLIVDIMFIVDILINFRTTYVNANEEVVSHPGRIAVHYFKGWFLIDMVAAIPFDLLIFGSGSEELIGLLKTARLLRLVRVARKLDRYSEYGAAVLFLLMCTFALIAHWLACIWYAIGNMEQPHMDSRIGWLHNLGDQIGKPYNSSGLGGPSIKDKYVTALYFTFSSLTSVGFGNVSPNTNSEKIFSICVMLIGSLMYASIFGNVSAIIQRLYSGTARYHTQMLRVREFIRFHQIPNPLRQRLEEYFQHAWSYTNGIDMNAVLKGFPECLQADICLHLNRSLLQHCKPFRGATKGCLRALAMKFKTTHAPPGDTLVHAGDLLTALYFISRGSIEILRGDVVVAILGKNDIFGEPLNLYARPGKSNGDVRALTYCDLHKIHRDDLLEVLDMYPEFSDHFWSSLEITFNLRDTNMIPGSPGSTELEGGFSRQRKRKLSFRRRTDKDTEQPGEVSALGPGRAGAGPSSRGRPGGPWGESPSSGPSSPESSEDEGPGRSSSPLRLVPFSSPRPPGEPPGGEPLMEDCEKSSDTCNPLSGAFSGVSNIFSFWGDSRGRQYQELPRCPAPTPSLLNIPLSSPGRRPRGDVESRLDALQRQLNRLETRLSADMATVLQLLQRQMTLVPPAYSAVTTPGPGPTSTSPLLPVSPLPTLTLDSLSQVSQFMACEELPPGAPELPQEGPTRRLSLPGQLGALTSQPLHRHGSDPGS
assay_overview: Blockade of hERG channel expressed in HEK293 cells by electrophysiological method
Format: cell-based
reported_conditions: HEK293 cells expressing hERG channel
observation_type: IC20 (nM)
Expressed in nM, but write only the number.

Qu. What measured IC20 goes with O=C1CCc2cc(C(O)CN3CCC(O)(c4cccc(F)c4)CC3)ccc2N1 (single isomer, unassigned; (-)) ?
Ans. 1100

Qu. Param item: C[C@@H]([C@@H](O)c1ccc(O)cc1)N1CCC(O)(c2ccccc2)CC1
Ans. 150

====

assay_overview: Ratio of Half life of compound in human liver microsome HHM0168 to half life in human liver microsome HHM0168 in presence of CYP2D6
Assay type: ADME
reported_conditions: microsomes
Task for the reader: assign each of the following compounds its reported Ratio.
Enter a number only.

Qu. What Ratio value was documented for this compound, CC(C(O)c1ccc2c(c1)CNC(=O)N2)N1CCC(O)(c2ccc(F)cc2)CC1 (racemic) ?
Ans. 1

Qu. And CC(C(O)c1ccc2c(c1)OCC(=O)N2)N1CCC(O)(c2ccc(F)cc2)CC1 (racemic) ?
Ans. 1

Qu. Now try CC(C(O)c1ccc2[nH]c(=O)oc2c1)N1CCC(O)(c2ccc(F)cc2)CC1 (racemic) .
Ans. 1

Qu. Now the same for CC(C(O)c1ccc2c(c1)COC(=O)N2)N1CCC(O)(c2ccc(F)cc2)CC1 (racemic)
Ans. 1

Qu. What do you get for CC(C(O)c1ccc2c(c1)CN(C)C(=O)N2)N1CCC(O)(c2ccc(F)cc2)CC1 (racemic) ?
Ans. 1

Qu. Note, next up: CC(C(O)c1ccc(O)c(Cl)c1)N1CCC(O)(c2ccc(F)cc2)CC1 (racemic)
Ans. 1.6

Reference for the values: ChEMBL document CHEMBL1139807
